Experiment: Evaluation of a conversion rate to 2-acetylnaphtho[2,3-b]furan-4,9-dione in pH 7.4 phosphate buffer solution
Format: physicochemical
Details: Phosphate buffer solution (pH 7.4), 1 umol/L, 37° C., incubation time 120 min
% Measurement value (conversion rate to 2-acetylnaphtho[2,3-b]furan-4,9-dione) under 40% gets 1.0, anything at or over 40% gets 0.0.

Check out these entries, answers already filled in.
> print(dat)
                                   compound  label.value
1  CC(=O)c1cc2c(OC(=O)NCCCN)c3ccccc3c(O)c2o1.Cl [Example 15]          0.0
2  CC(=O)c1cc2c(OC(=O)NCCCCCCCCN)c3ccccc3c(O)c2o1.Cl [Example 75]          0.0
3  CC(=O)c1cc2c(O)c3ccccc3c(OC(=O)NCCCNCCS(C)(=O)=O)c2o1.Cl [Example 82]          1.0
4  CC(=O)c1cc2c(OC(=O)NCCCCCNCC(=O)O)c3ccccc3c(O)c2o1.Cl [Example 76]          0.0
5  CC(=O)c1cc2c(OC(=O)OCCCCN)c3ccccc3c(OC(=O)OCCCCN)c2o1 [Example 21]          1.0
6  COC(=O)NCCNCCNC(=O)Oc1c2ccccc2c(OC(=O)NCCNCCNC(=O)OC)c2oc(C(C)=O)cc12.Cl.Cl [Example 67]          0.0

Does CC(=O)c1cc2c(OC(=O)NCCCCN)c3ccccc3c(OC(=O)NCCCCN)c2o1.Cl.Cl [Example 13] have % Measurement value (conversion rate to 2-acetylnaphtho[2,3-b]furan-4,9-dione) strictly under 40%?
1.0

Given CC(=O)c1cc2c(OC(=O)NCCCNCC(=O)N3CCC3)c3ccccc3c(OC(=O)NCCCNCC(=O)N3CCC3)c2o1.Cl.Cl [Example 63] , is recorded % Measurement value (conversion rate to 2-acetylnaphtho[2,3-b]furan-4,9-dione) strictly lower than 40%?
0.0

Please let me know if CC(=O)c1cc2c(OC(=O)NCCNCC(=O)NCC(=O)O)c3ccccc3c(OC(=O)NCCNCC(=O)NCC(=O)O)c2o1.Cl.Cl [Example 41] shows % Measurement value (conversion rate to 2-acetylnaphtho[2,3-b]furan-4,9-dione) below 40%.
0.0

In the record for CC(=O)c1cc2c(OC(=O)NC3CCNC3)c3ccccc3c(OC(=O)NC3CCNC3)c2o1.Cl.Cl (stereo not shown) [Example 48] , is % Measurement value (conversion rate to 2-acetylnaphtho[2,3-b]furan-4,9-dione) less than 40%?
0.0

% Measurement value (conversion rate to 2-acetylnaphtho[2,3-b]furan-4,9-dione) strictly < 40% for this compound? CC(=O)c1cc2c(O)c3ccccc3c(OC(=O)NCCCNCCS(=O)(=O)N(C)C)c2o1.Cl [Example 80]
1.0

API: query returns whether the compound falls strictly under 40% in % Measurement value (conversion rate to 2-acetylnaphtho[2,3-b]furan-4,9-dione). Query: CC(=O)c1cc2c(OC(=O)NCCNCCS(=O)(=O)N3CCCCC3)c3ccccc3c(OC(=O)NCCNCCS(=O)(=O)N3CCCCC3)c2o1.Cl.Cl [Example 56]
1.0

====

Parameter Solubility in pH 2.0 buffer solution: see the listing below.
Assay: Solubility test
Conditions: 50 mmol/L glycine buffer solution (pH 2.0), room temperature, 24 hours shaking

Below are worked cases with known answers.
> print(dat)
                                   molecule      result
1  COC(=O)OCCNCCCNC(=O)Oc1c2ccccc2c(OC(=O)NCCCNCCOC(=O)OC)c2oc(C(C)=O)cc12.Cl.Cl  >5.0 mg/mL
2  CC(=O)c1cc2c(O)c3ccccc3c(OC(=O)NCCNCC(=O)O)c2o1.Cl   0.1 mg/mL
3  CC(=O)c1cc2c(O)c3ccccc3c(OC(=O)NCCNCCOC(N)=O)c2o1.Cl   4.0 mg/mL
4  CC(=O)c1cc2c(OC(=O)NCCNCC(F)(F)F)c3ccccc3c(OC(=O)NCCNCC(F)(F)F)c2o1.Cl.Cl  >5.0 mg/mL

Briefly, Solubility in pH 2.0 buffer solution measured for CC(=O)c1cc2c(OC(=O)NCCCCCCN)c3ccccc3c(OC(=O)NCCCCCCN)c2o1.Cl.Cl : >5.0 mg/mL

For this molecule ( CC(=O)c1cc2c(OC(=O)NCCCCCCCN)c3ccccc3c(OC(=O)NCCCCCCCN)c2o1.Cl.Cl ), measured Solubility in pH 2.0 buffer solution is >5.0 mg/mL

====

Assay: Evaluation of a conversion rate to 2-acetylnaphtho[2,3-b]furan-4,9-dione in human plasma
Type: in vitro ADME
Conditions: Human plasma, 1 umol/L, 37° C., incubation time 120 min
Description: For test compounds, the decrease rate of the test compounds and the conversion rate thereof to 2-acetylnaphtho[2,3-b]furan-4,9-dione in human plasma, CD1 mouse plasma, and pH 7.4 phosphate buffer solution were measured. […] In the same way as Example 6, the incubation time was set as 120 minutes later, and the conversion rate of each of various test compounds to 2-acetylnaphtho[2,3-b]furan-4,9-dione in human plasma, CD1 mouse plasma, and pH 7.4 phosphate buffer solution was measured.
Each record here notes measured % Measurement value (conversion rate to 2-acetylnaphtho[2,3-b]furan-4,9-dione).
Entry rule: numbers only, all in %.

> print(dat)
                                   compound  output.unit  readout.number
1  COC(=O)OCCNCCCNC(=O)Oc1c2ccccc2c(O)c2cc(C(C)=O)oc12.Cl            %              34
2  CC(=O)c1cc2c(OC(=O)NCCCCCCCN)c3ccccc3c(OC(=O)NCCCCCCCN)c2o1.Cl.Cl            %              85
3  CC(=O)c1cc2c(OC(=O)NCCNCCN)c3ccccc3c(OC(=O)NCCNCCN)c2o1.Cl.Cl            %              59

Record summary for CC(=O)c1cc2c(OC(=O)NCCNCCS(=O)(=O)N(C)C)c3ccccc3c(OC(=O)NCCNCCS(=O)(=O)N(C)C)c2o1.Cl.Cl : reported % Measurement value (conversion rate to 2-acetylnaphtho[2,3-b]furan-4,9-dione) = 68

====

Assay: Solubility test
Conditions: 50 mmol/L glycine buffer solution (pH 2.0), room temperature, 24 hours shaking
List of Solubility in pH 2.0 buffer solution values.

Example entries and their recorded answers appear below.
> print(dat)
                                   compound                       measured.metric      result
1  COC(=O)[C@@H](N)CCNC(=O)Oc1c2ccccc2c(OC(=O)NCC[C@H](N)C(=O)OC)c2oc(C(C)=O)cc12 [Example 106]  Solubility in pH 2.0 buffer solution  >5.0 mg/mL
2  COC(=O)OCCNCCCNC(=O)Oc1c2ccccc2c(O)c2cc(C(C)=O)oc12.Cl [Example 92]  Solubility in pH 2.0 buffer solution  >5.0 mg/mL

# context switch: different compound, same Solubility in pH 2.0 buffer solution
The recorded Solubility in pH 2.0 buffer solution for COC(=O)CNCCNC(=O)Oc1c2ccccc2c(OC(=O)NCCNCC(=O)OC)c2oc(C(C)=O)cc12.Cl.Cl [Example 36] is >5.0 mg/mL

====

Below: a set of entries, each annotated with reported % Measurement value (conversion rate to 2-acetylnaphtho[2,3-b]furan-4,9-dione).
Assay: Evaluation of a conversion rate to 2-acetylnaphtho[2,3-b]furan-4,9-dione in human plasma
Assay type: in vitro ADME
Conditions: Human plasma, 1 umol/L, 37° C., incubation time 120 min
Description: For test compounds, the decrease rate of the test compounds and the conversion rate thereof to 2-acetylnaphtho[2,3-b]furan-4,9-dione in human plasma, CD1 mouse plasma, and pH 7.4 phosphate buffer solution were measured. […] In the same way as Example 6, the incubation time was set as 120 minutes later, and the conversion rate of each of various test compounds to 2-acetylnaphtho[2,3-b]furan-4,9-dione in human plasma, CD1 mouse plasma, and pH 7.4 phosphate buffer solution was measured.
Write the value in % as a bare number.

See these solved cases before continuing.
> print(dat)
                                   compound  readout.number
1  COC(=O)NCCNCCNC(=O)Oc1c2ccccc2c(OC(=O)NCCNCCNC(=O)OC)c2oc(C(C)=O)cc12.Cl.Cl              78
2  CC(=O)c1cc2c(OC(=O)NCCNCCS(=O)(=O)C(C)C)c3ccccc3c(OC(=O)NCCNCCS(=O)(=O)C(C)C)c2o1.Cl.Cl              81

Lab note: CC(=O)c1cc2c(OC(=O)NCCNCC(=O)NCC(=O)O)c3ccccc3c(OC(=O)NCCNCC(=O)NCC(=O)O)c2o1.Cl.Cl gave % Measurement value (conversion rate to 2-acetylnaphtho[2,3-b]furan-4,9-dione) of 86

====

Experiment: Evaluation of a conversion rate to 2-acetylnaphtho[2,3-b]furan-4,9-dione in human plasma
Format: in vitro ADME
Conditions: Human plasma, 1 umol/L, 37° C., incubation time 120 min
Description: For test compounds, the decrease rate of the test compounds and the conversion rate thereof to 2-acetylnaphtho[2,3-b]furan-4,9-dione in human plasma, CD1 mouse plasma, and pH 7.4 phosphate buffer solution were measured. […] In the same way as Example 6, the incubation time was set as 120 minutes later, and the conversion rate of each of various test compounds to 2-acetylnaphtho[2,3-b]furan-4,9-dione in human plasma, CD1 mouse plasma, and pH 7.4 phosphate buffer solution was measured.
% Measurement value (conversion rate to 2-acetylnaphtho[2,3-b]furan-4,9-dione) overview
Just the number in %, nothing appended.

> print(dat)
                                   compound  output.unit  readout.number
1  COC(=O)CNCCNC(=O)Oc1c2ccccc2c(OC(=O)NCCNCC(=O)OC)c2oc(C(C)=O)cc12.Cl.Cl            %              73
2  CC(=O)c1cc2c(OC(=O)NCCCNCC(=O)O)c3ccccc3c(OC(=O)NCCCNCC(=O)O)c2o1.Cl.Cl            %              89
3  CCNCCCCOC(=O)Oc1c2ccccc2c(OC(=O)OCCCCNCC)c2oc(C(C)=O)cc12.Cl.Cl            %              73
4  CC(=O)c1cc2c(OC(=O)NCCNC(C)C(=O)O)c3ccccc3c(OC(=O)NCCNC(C)C(=O)O)c2o1.Cl.Cl (centres unmarked)            %              96
5  CC(=O)c1cc2c(OC(=O)NCCCCCNCC(=O)O)c3ccccc3c(O)c2o1.Cl            %              68

Looking up CC(=O)c1cc2c(O)c3ccccc3c(OC(=O)NCCCNCC(=O)NCC(=O)O)c2o1.Cl , I found its % Measurement value (conversion rate to 2-acetylnaphtho[2,3-b]furan-4,9-dione) recorded as 42

Note to self: % Measurement value (conversion rate to 2-acetylnaphtho[2,3-b]furan-4,9-dione) recorded for CC(=O)c1cc2c(O)c3ccccc3c(OC(=O)NCCCNCCS(C)(=O)=O)c2o1.Cl was 74

response.value for CC(=O)c1cc2c(OC(=O)NCCCNCCOC(N)=O)c3ccccc3c(OC(=O)NCCCNCCOC(N)=O)c2o1.Cl.Cl (field: % Measurement value (conversion rate to 2-acetylnaphtho[2,3-b]furan-4,9-dione)) = 59

% Measurement value (conversion rate to 2-acetylnaphtho[2,3-b]furan-4,9-dione) measured on CC(=O)c1cc2c(O)c3ccccc3c(OC(=O)NCCNCCOC(N)=O)c2o1.Cl = 38

For CC(=O)c1cc2c(OC(=O)NCC[C@H](N)C(=O)O)c3ccccc3c(OC(=O)NCC[C@H](N)C(=O)O)c2o1.Cl.Cl the compound record lists % Measurement value (conversion rate to 2-acetylnaphtho[2,3-b]furan-4,9-dione) as 63

So, COC(=O)OCCNCCCNC(=O)Oc1c2ccccc2c(OC(=O)NCCCNCCOC(=O)OC)c2oc(C(C)=O)cc12.Cl.Cl ? Its % Measurement value (conversion rate to 2-acetylnaphtho[2,3-b]furan-4,9-dione) was 66

Note to self: % Measurement value (conversion rate to 2-acetylnaphtho[2,3-b]furan-4,9-dione) recorded for CC(=O)c1cc2c(OC(=O)NCCCNCCN)c3ccccc3c(OC(=O)NCCCNCCN)c2o1.Cl.Cl was 78

Memo: CC(=O)c1cc2c(O)c3ccccc3c(OC(=O)NCCCNCC(=O)N3CCC3)c2o1.Cl , reported % Measurement value (conversion rate to 2-acetylnaphtho[2,3-b]furan-4,9-dione): 55

Summary for this compound, CC(=O)c1cc2c(O)c3ccccc3c(OC(=O)NCCNCC(=O)N3CCC3)c2o1.Cl : % Measurement value (conversion rate to 2-acetylnaphtho[2,3-b]furan-4,9-dione) is 38

Sample COC(=O)OCCNCCNC(=O)Oc1c2ccccc2c(O)c2cc(C(C)=O)oc12.Cl ; % Measurement value (conversion rate to 2-acetylnaphtho[2,3-b]furan-4,9-dione) observed: 61

Looking up COC(=O)CNCCCNC(=O)Oc1c2ccccc2c(OC(=O)NCCCNCC(=O)OC)c2oc(C(C)=O)cc12.Cl.Cl , I found its % Measurement value (conversion rate to 2-acetylnaphtho[2,3-b]furan-4,9-dione) recorded as 92

Note to self: % Measurement value (conversion rate to 2-acetylnaphtho[2,3-b]furan-4,9-dione) recorded for CC(=O)c1cc2c(O)c3ccccc3c(OC(=O)NCCNCCS(C)(=O)=O)c2o1.Cl was 74

Value of % Measurement value (conversion rate to 2-acetylnaphtho[2,3-b]furan-4,9-dione) reported for the compound CC(=O)c1cc2c(OC(=O)NCCN)c3ccccc3c(O)c2o1.Cl is 81

% Measurement value (conversion rate to 2-acetylnaphtho[2,3-b]furan-4,9-dione) for CC(=O)c1cc2c(OC(=O)NCCCCCCCCN)c3ccccc3c(OC(=O)NCCCCCCCCN)c2o1.Cl.Cl is 80

Entry COC(=O)OCCNCCNC(=O)Oc1c2ccccc2c(OC(=O)NCCNCCOC(=O)OC)c2oc(C(C)=O)cc12.Cl.Cl , % Measurement value (conversion rate to 2-acetylnaphtho[2,3-b]furan-4,9-dione) reported as 90

Numbers sourced from patent US10800752B2.
